study-target: T1, cynomolgus galectin-10-His, WGS isoform (cynomolgus)
T1 construct: also called cynoGal10-WGS; not shown: His tag
T1 chain: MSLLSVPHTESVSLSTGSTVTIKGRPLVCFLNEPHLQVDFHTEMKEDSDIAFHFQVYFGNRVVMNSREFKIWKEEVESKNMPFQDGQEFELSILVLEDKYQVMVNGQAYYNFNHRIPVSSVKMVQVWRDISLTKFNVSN
method-summary: SPR Biacore (summary table)
readout: kon (M⁻¹ s⁻¹)
Give a bare numeral; the unit M⁻¹ s⁻¹ is implied.

Input: # lookup: kon of 8H11 scFv-human Fc (Fc fusion, also called 008H11; not shown: CH2-CH3 constant domains of human IgG1 (pUPEX50 scFv-Fc fusion vector)) scFv: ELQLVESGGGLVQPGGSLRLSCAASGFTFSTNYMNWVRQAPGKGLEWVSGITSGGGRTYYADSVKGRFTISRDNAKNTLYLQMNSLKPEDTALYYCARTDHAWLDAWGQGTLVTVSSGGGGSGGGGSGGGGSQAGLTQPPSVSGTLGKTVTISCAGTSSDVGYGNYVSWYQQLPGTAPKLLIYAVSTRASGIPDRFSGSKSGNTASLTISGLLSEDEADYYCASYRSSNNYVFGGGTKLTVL
Output: 1.75e+06

# credit: patent US20190367619A1
